- tested system: T1, SARS-CoV-2 N protein oligomerization domain (SARS-CoV-2, UniProt P0DTC9 247-364)
- T1 construct: also called N olig. domain; OD
- test: Octet, KD (nM) heat map
measurement kind: binding result

// sample NP3-A11 (antibody, V domains shown) VH: EVQLQESGPELKKPGETVKISCKVSGYTFTNYGMNWVKQAPGKGLKWMGWINTYTGEPKYGDDFKGRFALSLETSAGTAYLRINNLKNEDTATYFCARSHGNYENHFDYWGQGTTLTVSS VL: DIQMTQSPSSLSVSVGETVTITCRASENIYSSLAWYQQKQGKSPQLLVYTATDLADGVPSRFSGSGSGSQYSLRINSLQSEDFGSYYCQHFWGFPWTFGGGTKLEIK , its binding result was no binding

// sample NP3-A7 (antibody, V domains shown) VH: QIQLVQSGAELVKPGASVKLSCTASGFNIKDTYIHWVRQRPEQGLEWIGRIDPANGDTKYDPKFQDKATLIADTSSNTAYLQLGSLTSEDTAVYYCARYRIYYFDYWGQGTTLTVSS VL: DIQMTQSPASVPVTPGESVSISCRSSKSLLHSNGNTYVYWFLQRPGQSPRLLIYRMSNLASGVPDRFSGSGSGTAITLRISRVEAEDVGVYSCMQHLEYPLTFGAGTKLEIK , its binding result was no binding

// sample NP3-D5 (antibody, V domains shown) VH: DVQLQESGPELVRPGVSVKISCKGSGYTFTDYVMHWVKQSHAKSLEWIGVISTYSGNTNYNQKFKGKATMTVDKFSNTAYMELARLTSEDSAIYYCTRGTGDFDYWGQGTTLTVSS VL: DIVMTQSHKFMSTSVGDRVSITCKASQDVGTAVAWYQQKPGQSPKLLIYWASTRHTGVPDRFTGSGSGTDFTLTISNVQSEDLADYFCHQYSSYPYTFGGGTKLEIK , its binding result was no binding
